// values below are reported pIC50
# testTarget: Metabotropic glutamate receptor 1 (Homo sapiens, UniProt Q13255)
# Sequence (Q13255 whole entry): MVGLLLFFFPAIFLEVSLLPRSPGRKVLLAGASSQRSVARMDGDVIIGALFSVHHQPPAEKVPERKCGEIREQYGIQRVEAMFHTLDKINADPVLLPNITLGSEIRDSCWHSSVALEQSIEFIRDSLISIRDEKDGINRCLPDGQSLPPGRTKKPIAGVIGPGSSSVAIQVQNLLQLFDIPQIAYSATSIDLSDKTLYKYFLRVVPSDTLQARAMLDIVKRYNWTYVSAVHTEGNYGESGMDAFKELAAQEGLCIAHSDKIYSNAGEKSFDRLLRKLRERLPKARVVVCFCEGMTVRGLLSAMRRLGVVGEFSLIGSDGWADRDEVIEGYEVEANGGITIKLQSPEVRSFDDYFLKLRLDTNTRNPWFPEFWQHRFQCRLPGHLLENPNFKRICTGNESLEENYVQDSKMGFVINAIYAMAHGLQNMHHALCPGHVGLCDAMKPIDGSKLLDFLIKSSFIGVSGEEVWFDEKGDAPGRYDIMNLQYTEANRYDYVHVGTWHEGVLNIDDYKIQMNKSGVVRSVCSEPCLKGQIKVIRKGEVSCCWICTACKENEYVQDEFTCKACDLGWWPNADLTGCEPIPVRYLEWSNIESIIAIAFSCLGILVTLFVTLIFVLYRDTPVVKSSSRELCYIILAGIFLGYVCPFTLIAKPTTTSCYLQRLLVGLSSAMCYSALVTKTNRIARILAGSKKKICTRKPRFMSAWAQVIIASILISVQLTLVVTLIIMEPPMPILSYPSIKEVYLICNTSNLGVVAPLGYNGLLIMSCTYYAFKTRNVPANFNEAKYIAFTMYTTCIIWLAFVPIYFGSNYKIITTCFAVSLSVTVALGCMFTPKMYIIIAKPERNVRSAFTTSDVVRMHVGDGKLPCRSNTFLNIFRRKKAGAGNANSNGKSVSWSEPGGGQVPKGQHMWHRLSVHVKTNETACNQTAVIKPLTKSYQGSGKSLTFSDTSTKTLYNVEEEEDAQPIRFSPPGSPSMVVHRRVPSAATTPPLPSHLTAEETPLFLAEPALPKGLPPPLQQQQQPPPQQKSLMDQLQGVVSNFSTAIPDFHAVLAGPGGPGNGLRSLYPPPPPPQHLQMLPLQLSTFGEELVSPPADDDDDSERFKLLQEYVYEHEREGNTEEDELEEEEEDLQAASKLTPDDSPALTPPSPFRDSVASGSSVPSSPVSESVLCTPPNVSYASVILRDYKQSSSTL
# assayMethodText: Antagonist activity at human mGluR1
Value format note: pIC50 is -log10 of concentration (mol/L); just state the number.

See these solved cases before continuing.
{"columns": ["molecule", "pIC50"],
 "data": [
  ["C=CCNc1ccnc2sc3c(=O)n(-c4ccc(C)cc4)cnc3c12", 7.96],
  ["C=C(C)CNc1ccnc2sc3c(=O)n(-c4ccc(C)cc4)cnc3c12", 7.79],
  ["C#CCNc1ncnc2sc3c(=O)n(-c4ccc5c(c4)OCO5)cnc3c12", 6.86]
]}

// pIC50 lookup, molecule = `C=C(C)CNc1ccnc2sc3c(=O)n(-c4ccc(OC)c(F)c4)cnc3c12` , result: 6.99

pIC50 reported for this molecule `C=CCNc1ccnc2sc3c(=O)n(-c4ccc(F)c(OC)c4)cnc3c12` : 8.17

// field: pIC50; key: `C#CC(CC)(CC)Nc1ccnc2sc3c(=O)n(-c4ccc(C)cc4)cnc3c12` ; value = 6.45

pIC50 in this record for `C#CCNc1ncnc2sc3c(=O)n(-c4ccc(Br)cc4)cnc3c12` : 8.17

For reference, reported pIC50 for `C=C(C)CNc1ncnc2sc3c(=O)n(-c4ccc(F)cc4)cnc3c12` stands at 7.97

----------
# testTarget: Metabotropic glutamate receptor 1 (Rattus norvegicus, UniProt P23385)
# Sequence (P23385 whole entry): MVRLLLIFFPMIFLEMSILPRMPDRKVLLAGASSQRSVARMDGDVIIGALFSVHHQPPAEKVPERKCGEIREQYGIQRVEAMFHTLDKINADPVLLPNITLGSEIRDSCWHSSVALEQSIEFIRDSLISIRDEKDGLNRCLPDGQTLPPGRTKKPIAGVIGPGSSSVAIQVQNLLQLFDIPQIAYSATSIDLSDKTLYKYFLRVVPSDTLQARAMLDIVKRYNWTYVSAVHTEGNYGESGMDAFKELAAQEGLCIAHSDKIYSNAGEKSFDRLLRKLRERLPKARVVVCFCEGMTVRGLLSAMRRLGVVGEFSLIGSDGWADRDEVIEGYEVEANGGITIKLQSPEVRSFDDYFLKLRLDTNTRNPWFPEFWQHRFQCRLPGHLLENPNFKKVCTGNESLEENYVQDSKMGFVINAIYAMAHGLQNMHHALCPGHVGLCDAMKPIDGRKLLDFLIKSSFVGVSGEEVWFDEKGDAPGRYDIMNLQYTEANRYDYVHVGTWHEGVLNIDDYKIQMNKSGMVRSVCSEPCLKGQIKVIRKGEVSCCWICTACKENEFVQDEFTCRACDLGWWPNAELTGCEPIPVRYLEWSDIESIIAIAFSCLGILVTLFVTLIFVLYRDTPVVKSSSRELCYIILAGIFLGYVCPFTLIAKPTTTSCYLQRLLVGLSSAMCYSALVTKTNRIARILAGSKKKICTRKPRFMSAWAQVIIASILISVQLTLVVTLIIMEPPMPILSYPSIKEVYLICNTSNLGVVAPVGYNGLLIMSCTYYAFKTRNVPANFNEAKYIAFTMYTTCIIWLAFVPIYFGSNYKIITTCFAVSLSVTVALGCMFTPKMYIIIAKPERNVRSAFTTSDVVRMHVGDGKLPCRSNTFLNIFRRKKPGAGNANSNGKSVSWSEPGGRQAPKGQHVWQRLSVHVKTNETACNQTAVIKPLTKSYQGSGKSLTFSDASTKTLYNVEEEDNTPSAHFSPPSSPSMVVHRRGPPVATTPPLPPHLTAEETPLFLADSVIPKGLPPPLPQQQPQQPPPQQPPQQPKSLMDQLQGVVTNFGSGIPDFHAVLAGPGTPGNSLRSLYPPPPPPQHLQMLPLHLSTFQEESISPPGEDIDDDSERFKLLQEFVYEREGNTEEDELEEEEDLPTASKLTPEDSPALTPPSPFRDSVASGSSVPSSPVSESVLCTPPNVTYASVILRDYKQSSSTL
# assayMethodText: Antagonist activity at rat mGluR1
measuredQuantity: pKi
pKi here is simply -log10 of the concentration when that concentration is written in mol/L.

{"columns": ["structureSmiles", "pKi"],
 "data": [
  ["C#CCN(C)c1ccnc2sc3c(=O)n(-c4ccc(Cl)cc4)cnc3c12", 7.74],
  ["C=CCN(C)c1ccnc2sc3c(=O)n(-c4ccc(Br)cc4)cnc3c12", 8.49],
  ["C=C(C)CNc1ncnc2sc3c(=O)n(-c4ccncc4)cnc3c12", 6.00]
]}

Readout pKi for `C=CCNc1ccnc2sc3c(=O)n(-c4ccc(OC)cc4)cnc3c12` , test system Metabotropic glutamate receptor 1 (Rattus norvegicus, UniProt P23385), was 8.96

Response field pKi (Metabotropic glutamate receptor 1 (Rattus norvegicus, UniProt P23385)) for item `C=C(C)CNc1ncnc2sc3c(=O)n(-c4ccc(OC)c(F)c4)cnc3c12` : 7.17

Tested on Metabotropic glutamate receptor 1 (Rattus norvegicus, UniProt P23385): `C#CCN(C)c1ccnc2sc3c(=O)n(-c4ccc(Br)cc4)cnc3c12` . Observed pKi: 8.10

----------
# assayMethodText: Permeability of the compound in human Caco2 cells
# Assay type: ADME, cell-based
# condition: Caco-2, read-out: permeability
Listed below: Papp values for each entry.

{"columns": ["structureSmiles", "measuredQuantity", "result"],
 "data": [
  ["C#CCNc1ccnc2sc3c(=O)n(-c4ccc(Cl)cc4)cnc3c12", "Papp", "43 ×10⁻⁶ cm/s"]
]}

Turning now to a further record.
Consider `C#CCNc1ccnc2sc3c(=O)n(-c4ccc(OC)cc4)cnc3c12` . Its measured Papp is 69 ×10⁻⁶ cm/s

----------
# testTarget: Metabotropic glutamate receptor 1 (Rattus norvegicus, UniProt P23385)
# assayMethodText: Antagonist activity at rat mGluR1
compounds and their reported log10 Ki
// do not treat as linear: log10 of Ki, unit nM

Use these answered entries as a reference point.
{"columns": ["structureSmiles", "log10 Ki"],
 "data": [
  ["C=C(C)CNc1ccnc2sc3c(=O)n(-c4ccc(Cl)cc4)cnc3c12", 0.08],
  ["C=C(C)CNc1ncnc2sc3c(=O)n(-c4ccc(C)cc4)cnc3c12", 0.46],
  ["C#CCNc1ncnc2sc3c(=O)n(-c4ccc5c(c4)OCCO5)cnc3c12", 2.20],
  ["C#CCNc1ncnc2sc3c(=O)n(-c4ccc5ncsc5c4)cnc3c12", 2.03],
  ["C=CCNc1ccnc2sc3c(=O)n(-c4ccc(C)cc4)cnc3c12", 0.43],
  ["C#CCNc1ncnc2sc3c(=O)n(-c4ccc(Cl)cc4)cnc3c12", 0.64],
  ["C#CCNc1ccnc2sc3c(=O)n(-c4ccc(Cl)cc4)cnc3c12", -0.22],
  ["C#CCN(C)c1ccnc2sc3c(=O)n(-c4ccc(OC)cc4)cnc3c12", 1.43]
]}

log10 Ki measured on `C=CCNc1ccnc2sc3c(=O)n(-c4ccc(Br)cc4)cnc3c12` = -0.15

The measured log10 Ki associated with `C=CCNc1ccnc2sc3c(=O)n(-c4ccc(Cl)cc4)cnc3c12` reads 0.04

----------
# assayMethodText: Bioavailability in rat at 10 mg/kg
# Type: ADME, organism-based
# condition: in vivo
Measured bioavailability of individual entries
Express it in %; write the number only.

{"columns": ["structureSmiles", "measuredQuantity", "numericReadout"],
 "data": [
  ["C#CCNc1ccnc2sc3c(=O)n(-c4ccc(OC)cc4)cnc3c12", "bioavailability", 34]
]}

Could you now consider this next compound?
For reference, reported bioavailability for `C#CCNc1ccnc2sc3c(=O)n(-c4ccc(Cl)cc4)cnc3c12` stands at 16

----------
# testTarget: Metabotropic glutamate receptor 1 (Rattus norvegicus, UniProt P23385)
# assayMethodText: Antagonist activity at rat mGluR1
measuredQuantity: pKi
# pKi = -log10(concentration in molar units)

Reference set (5 entries):
{"columns": ["structureSmiles", "testTarget", "pKi"],
 "data": [
  ["C#CCNc1ncnc2sc3c(=O)n(-c4ccc(OC)cc4F)cnc3c12", "Metabotropic glutamate receptor 1 (Rattus norvegicus, UniProt P23385)", 7.49],
  ["C#CCNc1ncnc2sc3c(=O)n(-c4ccc5scnc5c4)cnc3c12", "Metabotropic glutamate receptor 1 (Rattus norvegicus, UniProt P23385)", 7.19],
  ["C=C(C)CNc1ncnc2sc3c(=O)n(-c4ccc(Cl)cc4)cnc3c12", "Metabotropic glutamate receptor 1 (Rattus norvegicus, UniProt P23385)", 8.66],
  ["C#CCNc1ncnc2sc3c(=O)n(-c4ccc5c(c4)OCO5)cnc3c12", "Metabotropic glutamate receptor 1 (Rattus norvegicus, UniProt P23385)", 6.00],
  ["C#CCNc1ccnc2sc3c(=O)n(-c4ccc(Br)cc4)cnc3c12", "Metabotropic glutamate receptor 1 (Rattus norvegicus, UniProt P23385)", 9.15]
]}

The measured pKi associated with `C=C(C)CNc1ccnc2sc3c(=O)n(-c4ccc(C)cc4)cnc3c12` reads 9.70

----------
# assayMethodText: Ratio of drug level in brain to plasma in rat at 10 mg/kg
# Format: ADME, organism-based
# Set-up: dose 10 mg/kg
# condition: read-out: BPR
Reported Kp values follow for various compounds
Form rule: numeric answer, no unit written next to it.

{"columns": ["structureSmiles", "Kp"],
 "data": [
  ["C#CCNc1ccnc2sc3c(=O)n(-c4ccc(Cl)cc4)cnc3c12", 1.8]
]}

Please look at the following compound next.
The value of Kp measured for the compound `C#CCNc1ccnc2sc3c(=O)n(-c4ccc(OC)cc4)cnc3c12` turned out to be 2.5

----------
# testTarget: Metabotropic glutamate receptor 1 (Homo sapiens)
# assayMethodText: Antagonist activity at human mGluR1
List of pIC50 values.
When answering, recall that pIC50 equals minus log10 of the concentration in mol/L, and write that number alone.

Some solved cases for reference:
{"columns": ["structureSmiles", "pIC50"],
 "data": [
  ["C=CCN(C)c1ccnc2sc3c(=O)n(-c4ccc(Br)cc4)cnc3c12", 7.18],
  ["C=C(C)CNc1ncnc2sc3c(=O)n(-c4ccc5sccc5c4)cnc3c12", 8.05],
  ["C=C(C)CNc1ncnc2sc3c(=O)n(-c4ccc(OC)c(F)c4)cnc3c12", 7.14],
  ["C#CCNc1ncnc2sc3c(=O)n(-c4ccc(OC)cc4)cnc3c12", 7.89],
  ["C#CCNc1ncnc2sc3c(=O)n(-c4ccc5c(c4)OCCO5)cnc3c12", 6.97],
  ["C#CCNc1ccnc2sc3c(=O)n(-c4ccc(OC)cc4)cnc3c12", 8.68],
  ["C=C(C)CNc1ccnc2sc3c(=O)n(-c4ccc5c(c4)OCO5)cnc3c12", 6.62],
  ["C#CCNc1ccnc2sc3c(=O)n(-c4ccc(OC)c(F)c4)cnc3c12", 7.90]
]}

So the reported pIC50 for `C=C(C)CNc1ncnc2sc3c(=O)n(-c4ccc(Cl)cc4)cnc3c12` , on Metabotropic glutamate receptor 1 (Homo sapiens), turned out to be 8.11

Field pIC50 (system: Metabotropic glutamate receptor 1 (Homo sapiens)) for entry `C=C(C)CNc1ncnc2sc3c(=O)n(-c4ccc5c(c4)OCCO5)cnc3c12` = 7.48

With Metabotropic glutamate receptor 1 (Homo sapiens) as the test system, `C#CCNc1ncnc2sc3c(=O)n(-c4ccc(C)cc4)cnc3c12` showed pIC50 of 8.41

Param item: `C=CCNc1ccnc2sc3c(=O)n(-c4ccc(Cl)cc4)cnc3c12` ; param system: Metabotropic glutamate receptor 1 (Homo sapiens); output pIC50: 7.22
